ASSAY NAME: folding stability dG unfold from chymotrypsin proteolysis; higher = more stable
Each entry below lists one item and its recorded folding stability dG unfold value.

>  <SEQUENCE CHAIN>
SAGGSAGGKTIEITIKLEDGKELKIKIDSPEELDKITSVELIGPGKIKITVNGKTIEITIKPKPSAGGSAGG [r6_206_TrROS_Hall]

>  <folding stability dG unfold>
2.77 kcal/mol

$$$$
>  <SEQUENCE CHAIN>
SAGGMKVRVRLPDGTEVELEVTEVTVSTDPSTGTPVYTITLANGEKLTVTVPVDKPVRPGETVTVTPESAGG [r13_390_JUSTAS]

>  <folding stability dG unfold>
3.71 kcal/mol

$$$$

Kindly review the next sequence as well.
Challenge: // folding stability dG unfold lookup, key: SAGGKPNWVWFKITINVTPEQLENMTLDEIADRVIDELMKLGFPIKKIEIDEIQWDGDRVTIYIRIRVSAGG [r13_432_TrROS]
Response given: 4.59 kcal/mol

---

ASSAY NAME: folding stability dG unfold (combined trypsin and chymotrypsin); higher = more stable
MEASURED METRIC: folding stability dG unfold (kcal/mol)
Lab book: enter the figure in kcal/mol, no units written.

Some sequences with recorded folding stability dG unfold:
>  <SEQUENCE CHAIN>
SAGKPKKKKRTITIPIEHNPNNGNFTIKIRWPGRPVTVPFPGDDPEEMLDNMLNELENRLGWPIDEVEISAG [r5_251_TrROS]

>  <OBSERVED VALUE>
0.429

$$$$
>  <SEQUENCE CHAIN>
SAGMVLEYEGVDEEEKLLARAEELRAELRARHPRVRVELEVEVKPTPGNKYRYRVTLTIEPLAPDEARASAG [r5_936_JUSTAS]

>  <OBSERVED VALUE>
1.99

$$$$
>  <SEQUENCE CHAIN>
MKVVFTEEELPDAKVRKVFDPETGTITETVTYPSTSYTVTSTATITSFDPETGKVTITTTVSAPPEAGIPAS [r1_234_JUSTAS]

>  <OBSERVED VALUE>
1.63

$$$$

Challenge: What value of folding stability dG unfold has been reported for the following sequence? SAGGSAGGSAGKTYTFRVRIVDEETGEEKEIEVTAKSEEEAKKAAEELKKKYPNLKVELESAGGSAGGSAGG [r11_233_TrROS_Hall]
Response given: 3.22

Challenge: I am curious: what folding stability dG unfold value has been reported for SAGMAEKIKAELEKKGYKYEIEEVKDPNNDKTYLIVKIYPKDGKEYIIIFDKEKGEVIKKIPSDEPNILSAG [r5_938_JUSTAS] ?
Response given: 1.64

Challenge: Please report the recorded folding stability dG unfold for SAGGSAGGSKTLIIKIKVEGLSEEEIAEELAKKLQEETGLKIKSVKIEKKDGYLYIEVEVEEPSAGGSAGGS [r12_781_TrROS_Hall] .
Response given: 4.15

---

ASSAY NAME: folding stability dG unfold (combined trypsin and chymotrypsin); higher = more stable
MEASURED METRIC: folding stability dG unfold (kcal/mol)
Answer with a number only, understood to be in kcal/mol.

Below, 6 sequences whose answers are already recorded.
>  <SEQUENCE CHAIN>
SAGELKPGQIVVRTIEIDLPEEDEELREAIERGELIELELEDGSRVLMRVERKDGKLRITEVVILPRPESAG [r5_223_TrROS_Hall]

>  <MEASURED METRIC>
folding stability dG unfold

>  <OBSERVED VALUE>
2.73

$$$$
>  <SEQUENCE CHAIN>
SAGGKKNKPKPKVKVKILSVTANPDPNTPGLLSVSVPVLIESDDEEFALALAKELAKLPNVKVVVLGGSAGG [r13_606_TrMRF]

>  <MEASURED METRIC>
folding stability dG unfold

>  <OBSERVED VALUE>
1.42

$$$$
>  <SEQUENCE CHAIN>
SAGGSKEKFLTIEHPDYVIKAYVDYPKEGKLRVRIEIYDKNGKLLKTIEVEAYSPEEVLEFLEKAASAGGSA [r2_82_TrMRF]

>  <MEASURED METRIC>
folding stability dG unfold

>  <OBSERVED VALUE>
3.05

$$$$
>  <SEQUENCE CHAIN>
SAGGSAGGSGSMLPITTVTPTPDGVWKITYELPDGSTRTITVPPDDLSLSGPPSSSGSSAALASAGGSAGGS [r20_194_JUSTAS]

>  <MEASURED METRIC>
folding stability dG unfold

>  <OBSERVED VALUE>
0.764

$$$$
>  <SEQUENCE CHAIN>
SAGGMETIELEIEITDEDGNTYRIRVTIERKDGKLVIKIEVEAETPEERERARELAEELARRLEEELSAGGS [r8_416_TrROS_Hall]

>  <MEASURED METRIC>
folding stability dG unfold

>  <OBSERVED VALUE>
4.94

$$$$
>  <SEQUENCE CHAIN>
SAGGSAMLRVFEKEHPGPFSITVLAGPGLSEEEIEELAEKLAEKKIEIEKKKIELEKKGKKPIFKKSAGGSA [r15_704_JUSTAS]

>  <MEASURED METRIC>
folding stability dG unfold

>  <OBSERVED VALUE>
0.0936

$$$$

Challenge: Return reported folding stability dG unfold; argument: SAGGSAGGSAGNKPVTVRFTIKIPLPNGKKLEIPVEVTYDSPEDRDRAEKEAEEIAREFLSAGGSAGGSAGG [r17_510_TrROS]
Response given: 1.36

Challenge: Given SAGGSARVVTAVARHPNSTEATLTVTDSGAAGGTSEITFASPEDLLAAIRNLPASVASVSVRPLLPSAGGSA [r15_589_TrMRF] , state its recorded folding stability dG unfold.
Response given: 0.422

Challenge: # lookup: folding stability dG unfold of SAGGSAGGMIIRITTKNGKTLEIKAKSLEEAKAAIAEKLGLSKENIKPEDITKVEIYSEEELKESAGGSAGG [r6_586_TrROS_Hall]
Response given: 3.12

Challenge: If you can, please state the reported folding stability dG unfold value of SAGMEEILEAAREAIEAGLTVRIEVTFKDGKKEEIEIEVESLEELLEALEKLDEIESVKIEVLAPGEEPSAG [r5_956_TrROS_Hall] .
Response given: 3.61

Challenge: Bench note: what folding stability dG unfold did SAGGMPPENIKEITEVERNPDGMKEITIEMEDPELAKQGNPEQVDQMAEWLQDEFPDRGIPVTIEPGPSAGG [r13_243_TrROS] show?
Response given: 0.0457

---

ASSAY NAME: folding stability dG unfold from trypsin proteolysis; higher = more stable
Reported folding stability dG unfold values are given for each entry in this list.
Just the number please, in kcal/mol, no unit attached.

Illustrative cases are given below, each with its answer.
>  <SEQUENCE CHAIN>
SAGGSAGGSPIVVDSPEDIEKAIEEAIASGAKSIVEVGPNRVRVVFVIPGEPKVFVLELPLNGSAGGSAGGS [r12_368_TrMRF]

>  <VALUE UNITS>
kcal/mol

>  <folding stability dG unfold>
1.42

$$$$
>  <SEQUENCE CHAIN>
SMDLRLEVVSVEIEPEGRTLRIRVRVRLTALDPDDPDLPVPVLEVEVEIPIPLPEPLPLPVPNDPRALAASA [r9_357_TrMRF]

>  <VALUE UNITS>
kcal/mol

>  <folding stability dG unfold>
1.63

$$$$

Challenge: # lookup: folding stability dG unfold of SAGGSAGGSAGASLKEELGFAEVLSRSPTPDTEPLLLKHPEGGELVTVEVDAATAVEWLESAGGSAGGSAGG [r11_630_JUSTAS]
Response given: 0.343

Challenge: I am curious: what folding stability dG unfold value has been reported for SAMETYEYPVTGDSATFTVPVPPDHIAKVTVHYPSGSTDTVVPPGVTTTFTVPSSNATVTITIYPRSALSAG [r14_882_JUSTAS] ?
Response given: 1.01

Challenge: Field request: folding stability dG unfold | item: SAGGMMYLIKVDTKEELKELAEAPGAKIVEEKEVNGKLYLLIEFPPGVTKIKIDVETRKIVEIEKLPSAGGS [r8_251_TrROS_Hall]
Response given: 0.759

---

ASSAY NAME: folding stability dG unfold from chymotrypsin proteolysis; higher = more stable
Outcome label depends on folding stability dG unfold relative to 1 kcal/mol: at/above gives fulfilled, below gives not fulfilled.

Check out these entries, answers already filled in.
>  <SEQUENCE CHAIN>
SAGNIMVQVEPDPGGTVKVEIMFMIPLPNGWPIMIQIEWEVRVDEDGEPELKMPIEIFFSEEALDKGFSAGG [r19_63_TrROS]

>  <LABEL VALUE>
fulfilled

$$$$
>  <SEQUENCE CHAIN>
SAGGSAMEKLKEIPGIERIEVKEDGKIIIHVKMSEEERKKLAEALRKEGKVKIEVVPVEVEEEEEESAGGSA [r15_554_TrROS_Hall]

>  <LABEL VALUE>
fulfilled

$$$$
>  <SEQUENCE CHAIN>
MKAHVTVVDLEDRYRARIELELPDGRVLVFEFEFDSWEEAIEFIRGLIAALPEDEVEIDHIEFLPPDGDPSS [r1_169_TrMRF]

>  <LABEL VALUE>
fulfilled

$$$$
>  <SEQUENCE CHAIN>
SAGGSAPPNWRRIEITFYIPPGQPTVSELADHIAKRIGFPVTGVEIDKVERNPDGAYEVKVSIIVPSAGGSA [r15_654_TrROS]

>  <LABEL VALUE>
fulfilled

$$$$
>  <SEQUENCE CHAIN>
SAGRPPEALREEVSEETITIPVPSTDSDEAPALTTKVTKTTTRLPTPVTTTTTTTTYPDGTTTTTTTAASAG [r5_580_JUSTAS]

>  <LABEL VALUE>
not fulfilled

$$$$

Challenge: Answer whether folding stability dG unfold of SAGGSAGGSSKYIKFIIPANSPEAIEKAKELAEFIKKKYPGIKKIEVKYNPEKGYLEVIAEVESAGGSAGGS [r12_248_TrMRF] is greater than or equal to 1 kcal/mol.
Response given: fulfilled

Challenge: Hi, just wondering whether SAGGSAGGSAGGKDVRITVSPNNMRISIWKRDPNDGKWKPIGTIPMPPNDPDKALDQLKSAGGSAGGSAGGS [r10_275_TrROS] shows folding stability dG unfold of 1 kcal/mol or higher.
Response given: not fulfilled

Challenge: Dear colleague, could you confirm whether SAGGSAGGSAGEVVLSPTDKTLTLTSFDPKTGVTYYTVFYPATGTTSTTSTGNLESLIAASAGGSAGGSAGG [r17_300_JUSTAS] has folding stability dG unfold at or above 1 kcal/mol?
Response given: not fulfilled

Challenge: Has SAGGSAGGSSVLEVDPETGITVAVQDPSTGRYYVRNPEGEIREFDSPEEIREAFGRPVNFKTAPSAGGSAGG [r6_753_JUSTAS] a recorded folding stability dG unfold greater than or equal to 1 kcal/mol?
Response given: not fulfilled

Challenge: Answer whether folding stability dG unfold of SAGGSMPLDVSSELLEESTDPSDPNRRTTLERRFSPDGTVTLVTRTFDPATGTTEVQETTLPPGLPSAGGSA [r2_73_JUSTAS] is greater than or equal to 1 kcal/mol.
Response given: fulfilled

Challenge: Exam item: decide whether the reported folding stability dG unfold for SAGGAVEITDISSKTVTEPVTFENGTVVPQERTAGTVTTTENGTPVATVPFTSEEELEEAIARALAESAGGS [r8_21_JUSTAS] is at least 1 kcal/mol.
Response given: fulfilled
